The values you see were collected from paper PMC6961518.

Experiment: Relaxivity determination (r1, r2) on Bruker minispec mq60
Format: physicochemical
Conditions: PBS, 60 MHz, 40°C

- compound: "O=P1(O)CN2CCN3Cc4cccc(CO)c4[O][Fe]([O]c4c(CO)cccc4C2)([O]1)[O]P(=O)(O)C3 [Fe-4]"
  r1 (mM⁻¹ s⁻¹): 0.9
- compound: "O=C1CN2CCN3CC(=O)[O][Fe]([O]1)([O]c1ccc(S(=O)(=O)O)cc1C2)[O]c1ccc(S(=O)(=O)O)cc1C3 [Fe-2]"
  r1 (mM⁻¹ s⁻¹): 0.9
- compound: "O=C1CN2CCN3CC(=O)[O][Fe]([O]1)([O]c1ccccc1C2)[O]c1ccccc1C3 [Fe-1]"
  r1 (mM⁻¹ s⁻¹): 0.49
- compound: "O=P1(O)CN2CCN3Cc4ccccc4[O][Fe]([O]c4ccccc4C2)([O]1)[O]P(=O)(O)C3 [Fe-3]"
  r1 (mM⁻¹ s⁻¹): 1.3
